# testSummary: Capivasertib exposure metrics at steady state projected with PopPK model, patients with solid tumors
# Assay type: in vivo
# condition: human, plasma, oral, 240 mg, Study 1, Continuous BID, 240 mg, PWD 3360 mg, N=6, median (range), read-out: AUCPWD
observable: AUC (ng·h/mL)
One number for each entry, in ng·h/mL.

Quick one: AUC for NC1(C(=O)N[C@@H](CCO)c2ccc(Cl)cc2)CCN(c2ncnc3[nH]ccc23)CC1 [capivasertib] ?
44700

----------
# testSummary: Capivasertib exposure metrics at steady state projected with PopPK model, patients with solid tumors
# Type: in vivo
# condition: human, plasma, oral, 600 mg, Study 1, Continuous BID, 600 mg, PWD 8400 mg, N=2, median (range), read-out: AUCss(0–12 h)
# Method: Study 1 (NCT01226316) was a phase 1 open-label multipart study. […] The duration of the treatment cycles was 21 days. […] [18]. […] [18, 25, 39]. […] The exposure–response analyses were conducted using a subset of patients from the PopPK analysis where capivasertib was used as monotherapy. […] The relative dose intensity (RDI) was calculated as the percentage of the average weekly dose relative to the PWD to examine the tolerability of capivasertib monotherapy at the given dosing schedules.
observable: AUC (ng·h/mL)
One number for each entry, in ng·h/mL.

Quick one: AUC for NC1(C(=O)N[C@@H](CCO)c2ccc(Cl)cc2)CCN(c2ncnc3[nH]ccc23)CC1 [capivasertib] ?
14300

----------
# testSummary: Capivasertib exposure metrics at steady state projected with PopPK model, patients with solid tumors
# Assay type: in vivo
# condition: human, plasma, oral, 800 mg, Study 1, [2/5] BID, 800 mg, PWD 3200 mg, N=14, median (range), read-out: AUCss(0–12 h)
observable: AUC (ng·h/mL)
Give bare numbers, in ng·h/mL.

Quick one: AUC for NC1(C(=O)N[C@@H](CCO)c2ccc(Cl)cc2)CCN(c2ncnc3[nH]ccc23)CC1 [capivasertib] ?
26400

----------
# testSummary: Capivasertib exposure metrics at steady state projected with PopPK model, patients with solid tumors
# Format: in vivo
# condition: human, plasma, oral, 400 mg, Study 1, Continuous BID, 400 mg, PWD 5600 mg, N=11, median (range), read-out: Cmin
observable: concentration at 12 h
A complete answer gives the number followed by the unit.

Quick one: concentration at 12 h for `NC1(C(=O)N[C@@H](CCO)c2ccc(Cl)cc2)CCN(c2ncnc3[nH]ccc23)CC1` ?
190 ng/mL

----------
# testSummary: Capivasertib exposure metrics at steady state projected with PopPK model, patients with solid tumors
# Format: in vivo
# condition: human, plasma, oral, 80 mg, Study 4 (Japanese patients), Continuous BID, 80 mg, PWD 1120 mg, N=3, median (range), read-out: AUCss(0–12 h)
observable: AUC (ng·h/mL)
Give bare numbers, in ng·h/mL.

Quick one: AUC for NC1(C(=O)N[C@@H](CCO)c2ccc(Cl)cc2)CCN(c2ncnc3[nH]ccc23)CC1 [capivasertib] ?
1480

----------
# testSummary: Capivasertib exposure metrics at steady state projected with PopPK model, patients with solid tumors
# Type: in vivo
# condition: human, plasma, oral, 360 mg, Study 4 (Japanese patients), [4/3] BID, PWD 2880 mg, N=8, median (range)
observable: Cmax (ng/mL)
Give bare numbers, in ng/mL.

Quick one: Cmax for NC1(C(=O)N[C@@H](CCO)c2ccc(Cl)cc2)CCN(c2ncnc3[nH]ccc23)CC1 [capivasertib] ?
960

----------
# testSummary: Capivasertib exposure metrics at steady state projected with PopPK model, patients with solid tumors
# Assay type: in vivo
# condition: human, plasma, oral, 480 mg, Study 4 (Japanese patients), [4/3] BID, 480 mg, PWD 3840 mg, N=6, median (range), read-out: AUCss(0–12 h)
observable: AUC (ng·h/mL)
Answers are plain numbers, in ng·h/mL.

Quick one: AUC for NC1(C(=O)N[C@@H](CCO)c2ccc(Cl)cc2)CCN(c2ncnc3[nH]ccc23)CC1 [capivasertib] ?
10800

----------
# testSummary: Capivasertib exposure metrics at steady state projected with PopPK model, patients with solid tumors
# Assay type: in vivo
# condition: human, plasma, oral, 480 mg, Study 1, [4/3] BID, 480 mg, PWD 3840 mg, N=127, median (range), read-out: AUCss(0–12 h)
observable: AUC (ng·h/mL)
Answers are plain numbers, in ng·h/mL.

Quick one: AUC for `NC1(C(=O)N[C@@H](CCO)c2ccc(Cl)cc2)CCN(c2ncnc3[nH]ccc23)CC1` ?
9690

----------
# testSummary: Capivasertib exposure metrics at steady state projected with PopPK model, patients with solid tumors
# Assay type: in vivo
# condition: human, plasma, oral, 800 mg, Study 1, [2/5] BID, 800 mg, PWD 3200 mg, N=14, median (range), read-out: Cmin
# Protocol: Study 1 (NCT01226316) was a phase 1 open-label multipart study. […] The duration of the treatment cycles was 21 days. […] [18]. […] [18, 25, 39]. […] The exposure–response analyses were conducted using a subset of patients from the PopPK analysis where capivasertib was used as monotherapy. […] The relative dose intensity (RDI) was calculated as the percentage of the average weekly dose relative to the PWD to examine the tolerability of capivasertib monotherapy at the given dosing schedules.
observable: concentration at 12 h (ng/mL)
Numbers only, in ng/mL.

Quick one: concentration at 12 h for NC1(C(=O)N[C@@H](CCO)c2ccc(Cl)cc2)CCN(c2ncnc3[nH]ccc23)CC1 [capivasertib] ?
1080

----------
# testSummary: Capivasertib exposure metrics at steady state projected with PopPK model, patients with solid tumors
# Assay type: in vivo
# condition: human, plasma, oral, 80 mg, Study 4 (Japanese patients), Continuous BID, PWD 1120 mg, N=3, median (range)
observable: AUC at 1 week (ng·h/mL)
Numbers only, in ng·h/mL.

Quick one: AUC at 1 week for `NC1(C(=O)N[C@@H](CCO)c2ccc(Cl)cc2)CCN(c2ncnc3[nH]ccc23)CC1` ?
20700

----------
# testSummary: Capivasertib exposure metrics at steady state projected with PopPK model, patients with solid tumors
# Format: in vivo
# condition: human, plasma, oral, 360 mg, Study 4 (Japanese patients), [4/3] BID, 360 mg, PWD 2880 mg, N=8, median (range), read-out: Cmin
observable: concentration at 12 h (ng/mL)
Give bare numbers, in ng/mL.

Quick one: concentration at 12 h for NC1(C(=O)N[C@@H](CCO)c2ccc(Cl)cc2)CCN(c2ncnc3[nH]ccc23)CC1 [capivasertib] ?
210

----------
# testSummary: Capivasertib exposure metrics at steady state projected with PopPK model, patients with solid tumors
# Type: in vivo
# condition: human, plasma, oral, 480 mg, Study 1, Continuous BID, PWD 6720 mg, N=6, median (range)
observable: Cmax (ng/mL)
Give bare numbers, in ng/mL.

Quick one: Cmax for `NC1(C(=O)N[C@@H](CCO)c2ccc(Cl)cc2)CCN(c2ncnc3[nH]ccc23)CC1` ?
1620

----------
# testSummary: Capivasertib exposure metrics at steady state projected with PopPK model, patients with solid tumors
# Format: in vivo
# condition: human, plasma, oral, 640 mg, Study 1, [2/5] BID, 640 mg, PWD 2560 mg, N=8, median (range), read-out: Cmin
observable: concentration at 12 h (ng/mL)
Numbers only, in ng/mL.

Quick one: concentration at 12 h for `NC1(C(=O)N[C@@H](CCO)c2ccc(Cl)cc2)CCN(c2ncnc3[nH]ccc23)CC1` ?
570

----------
# testSummary: Capivasertib exposure metrics at steady state projected with PopPK model, patients with solid tumors
# Type: in vivo
# condition: human, plasma, oral, 640 mg, Study 1, [4/3] BID, PWD 5120 mg, N=10, median (range)
observable: Cmax (ng/mL)
One number for each entry, in ng/mL.

Quick one: Cmax for `NC1(C(=O)N[C@@H](CCO)c2ccc(Cl)cc2)CCN(c2ncnc3[nH]ccc23)CC1` ?
2430

----------
# testSummary: Capivasertib exposure metrics at steady state projected with PopPK model, patients with solid tumors
# Assay type: in vivo
# condition: human, plasma, oral, 80 mg, Study 1, Continuous BID, 80 mg, PWD 1120 mg, N=5, median (range), read-out: Cmin
# Method: Study 1 (NCT01226316) was a phase 1 open-label multipart study. […] The duration of the treatment cycles was 21 days. […] [18]. […] [18, 25, 39]. […] The exposure–response analyses were conducted using a subset of patients from the PopPK analysis where capivasertib was used as monotherapy. […] The relative dose intensity (RDI) was calculated as the percentage of the average weekly dose relative to the PWD to examine the tolerability of capivasertib monotherapy at the given dosing schedules.
observable: concentration at 12 h (ng/mL)
Give bare numbers, in ng/mL.

Quick one: concentration at 12 h for `NC1(C(=O)N[C@@H](CCO)c2ccc(Cl)cc2)CCN(c2ncnc3[nH]ccc23)CC1` ?
30
